Target: T1, Human CD24 (human, UniProt P25063 27-59, limits assumed)
T1 chain (looked up): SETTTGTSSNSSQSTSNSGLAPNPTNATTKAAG
Assay: SPR affinity ranking, 1:1 binding, analyte conc. 19.71 nM
READOUT: pKd
# pKd is unitless: minus log10 of the molar concentration; print number only

INSERT INTO results (binder, readout, result) VALUES
  ('Antibody No 17, lead clone of 4451H (HC N35G, T59Y; LC L33G) (antibody, V domains shown) VH: QVQLVQSGAEVKKPGASVKVSCKASGYDFTGYHMGWVRQAPGQGLEWMGEINPITSDKYFNQKFKSRVTMTRDTSISTAYMELSRLRSDDTAVYYCARRDYGTSLDYWGQGTTVTVSS VL: DIQLTQSPSFLSASVGDRVTITCRASKSISKYGAWYQQKPGKAPKLLIYAGSTLHSGIPSRFRGSGSGTEFTLTISSLQPEDFATYYCQQHNEYPITFGQGTKLEIK', 'pKd', 8.35);

Now consider the entry below.
Recorded pKd of Antibody No 4, lead clone of 4451H (HC N35G; LC K27A) (antibody, V domains shown) VH: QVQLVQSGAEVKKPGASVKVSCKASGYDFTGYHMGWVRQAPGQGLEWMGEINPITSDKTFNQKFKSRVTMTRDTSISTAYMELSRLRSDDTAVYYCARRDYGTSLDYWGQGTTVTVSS VL: DIQLTQSPSFLSASVGDRVTITCRASASISKYLAWYQQKPGKAPKLLIYAGSTLHSGIPSRFRGSGSGTEFTLTISSLQPEDFATYYCQQHNEYPITFGQGTKLEIK , please.
8.05
